EXPERIMENTAL DETAILS: qHTS for Inhibitors of human tyrosyl-DNA phosphodiesterase 1 (TDP1): qHTS in cells in presence of CPT; note: nearly all actives have a fitted effect of over 55% in size
MEASUREMENT PARAMETERS: chicken DT40 Tdp1-/-;hTDP1 cells + 20 nM CPT, ATP luminescence, 48 h; series mostly up to 46.2 µM
About 50,000 (12%) of roughly 420,000 compounds were called active. About 26% were inconclusive and are not listed. Calls come from the whole dose curve; as a rule, active = well fitted inhibition curve with a large enough effect; inconclusive = small, poorly fitted or top-dose-only effect; inactive = flat fitted curve, though single readings scatter. The entries come from a sample that favours actives as a whole.
Outcomes: active, inactive

>>> df
                                    molecule  assigned_class
 0  Cc1ccc(C(CNC(=O)Nc2ccccc2)N2CCN(C)CC2)cc1 (stereo not drawn)        inactive
 1       O=C(Nc1ccccc1Cl)N1CCC(CN2CCCCC2)CC1        inactive
 2  COCc1[nH]nc2c1C(C1C=CCCC1)C(C#N)=C(N)O2 (stereo not drawn)          active
 3  CN(Cc1ccc(CNC[C@H]2O[C@@H](n3cnc4c(N)ncnc43)[C@H](O)[C@@H]2O)o1)S(C)(=O)=O        inactive
 4  Nc1ccc(/C=C/c2ccnc3ccccc23)c([N+](=O)[O-])c1          active
 5  C/C(=N\NC(=O)c1cccc([N+](=O)[O-])c1)c1cccnc1        inactive
 6      COc1ccc(/C=N/S(=O)(=O)c2ccccc2)cc1OC        inactive
 7     CCCn1c(NCc2ccc(N(CC)CC)cc2)nc2ccccc21          active
 8  O=C(O)c1ccc2c(=O)n3c(nc2c1)/C(=C/c1ccc(Cl)c([N+](=O)[O-])c1)CC3        inactive
 9             CCCn1c(NCc2ccccc2F)nc2ccccc21        inactive
10  CC(=O)Nc1cc(-c2ccccc2F)cn2c(-c3cccc(C(F)(F)F)c3)cnc12        inactive
11  O=C(N/N=C/c1ccc(OCc2ccccc2)cc1)c1ccc(O)cc1        inactive
12    Fc1ccc(COc2cccc(-c3n[nH]c(=S)o3)c2)cc1        inactive
13  CC(C)[C@@H]1NC(=O)c2cc([N+](=O)[O-])cc(I)c2NCCC[C@@H](C(=O)NC(CC(=O)O)C(N)=O)NC(=O)[C@H](CO)NC1=O (stereo partly drawn)        inactive
14  COc1ccc(-c2cc(NC=O)c3ncc(-c4ccccc4)n3c2)cc1OC          active
15  COCc1cccc(-c2csc(C(O)c3ccc(F)cc3)n2)c1 (stereo not drawn)          active
16         CC(C)(C)C(=O)Cn1c(NCCO)nc2ccccc21        inactive
17  CC(=O)c1cc(C#N)c(N2CC(C)OC(C)C2)nc1C (stereo not drawn)        inactive
18  CCOC(=O)[C@H](CCc1ccccc1)N[C@@H](C)C(=O)N1CC2(C[C@H]1C(=O)O)SCCS2        inactive
19          NNC(=O)c1ccc(COCC(F)(F)C(F)F)cc1        inactive
20          COc1cc(C=O)ccc1Oc1nnnn1-c1ccccc1        inactive
21  Cc1nn(-c2ccccc2)c2c1C(c1ccc(F)cc1)C(C#N)=C(N)O2 (stereo not drawn)        inactive
22  COc1cccc(-c2cc(NC(C)=O)c3ncc(-c4cccc(C(C)=O)c4)n3c2)c1          active
23  COc1ccc(C(=O)OCC(=O)N2CC(=O)Nc3ccccc32)cc1Br        inactive
24  CCCCn1c(N)c(N(CC(C)C)C(=O)c2ccc(Br)o2)c(=O)[nH]c1=O        inactive
25  COc1cccc2c1CCC(NC(C)=O)C2=O (stereo not drawn)        inactive
26      C/C(=N\NC(=O)c1ccc2ccccc2c1)c1cccnc1        inactive
27  O=C(Cn1c2[n+](c3ccc(C(F)(F)F)cc31)CCCCC2)Nc1c(F)cccc1F        inactive
28  CC(=O)c1ccc(NC(=O)COc2ccccc2-c2nc(-c3ccccc3)no2)cc1        inactive
29       NC(=O)c1cc(S(=O)(=O)NCCCc2ccco2)cs1        inactive
30  C/C(=N\NC(=O)c1cc(-c2ccc(O)cc2)nc2ccccc12)c1cccnc1          active
31  CCOc1c(OC)cc(C2C(C#N)=C(N)Oc3n[nH]c(-c4ccncc4)c32)cc1OC (stereo not drawn)        inactive
32  N#CC1=C(N)OC2=C(C(=O)CCC2)C1C1CC=CCC1 (stereo not drawn)        inactive
33  COc1ccc(Nc2ncnc3sc(-c4ccccc4)cc23)c(OC)c1        inactive
34  COc1ccccc1C1=CC(=O)C[C@H](c2ccc(F)cc2)C1        inactive
35  Cc1ccc(N2CC(C(=O)Nc3cc(Cl)ccc3-n3cncn3)CC2=O)cc1 (stereo not drawn)        inactive
36  O=C(COC(=O)C1(c2ccc(F)cc2)CCCC1)N1CCNC1=O        inactive
37  CCCc1[nH]nc2c1C(c1ccc(OC(=O)c3ccco3)cc1)C(C#N)=C(N)O2 (stereo not drawn)        inactive
38  COc1ccc(NC(=O)CC2COc3ccccc3O2)c(OC)c1 (stereo not drawn)        inactive
39     CC(=O)c1cc(C#N)c(SCC(=O)C(C)(C)C)nc1C          active
40  COc1ccc(/C=N/NC(=O)c2ccc(Cl)cc2)cc1COC(C)=O        inactive
41  COc1cccc(-c2cc(C(=O)N/N=C/c3ccc(OC)c(COC(C)=O)c3)c3ccccc3n2)c1          active
42  CCCc1[nH]nc2c1C(C1CC=CCC1)C(C#N)=C(N)O2 (stereo not drawn)          active

###

EXPERIMENTAL DETAILS: qHTS for Inhibitors of human tyrosyl-DNA phosphodiesterase 1 (TDP1): qHTS in cells in presence of CPT; note: nearly all actives have a fitted effect of over 55% in size; note: potency is the fitted concentration of half-maximal effect
MEASUREMENT PARAMETERS: chicken DT40 Tdp1-/-;hTDP1 cells + 20 nM CPT, ATP luminescence, 48 h; series mostly up to 46.2 µM
Protocol: Human tyrosyl-DNA phosphodiesterase 1 (TDP1) is a novel repair gene, and we propose to use it as a new target for anticancer drug development. […] For the primary screen, Tdp1-/-;hTDP1 cells will be exposed to small molecules in the presence or absence of CPT, and their growth kinetics will be evaluated after 48 hours by measuring ATP activity. […] The hit compounds will then be evaluated in the presence or absence of CPT using Tdp1-/- cells. […]
About 50,000 (12%) of roughly 420,000 compounds were called active. About 26% were inconclusive and are not listed. Shown is part of a subset that was picked to be rich in actives.
MEASURED METRIC: Potency

>>> df
                                   compound          observed
0         Cc1cc(C)nc(S/C=C/C(=O)c2ccccc2)n1  2.06 µM (active)
1           Cc1ccc(N/C=C/C(=O)c2ccccc2)cc1C          inactive
2  COC(=O)c1c(-c2ccsc2)oc2ccc(-c3cc(OC)c(OC)c(OC)c3)cc12  18.4 µM (active)
3  N/C(=N\OS(=O)(=O)c1cccc([N+](=O)[O-])c1)c1ccncc1          inactive
4  CCCNC(=O)C[C@@H]1CC[C@@H]2[C@H](COC[C@H](O)CN2C(=O)c2cc(Cl)cc(Cl)c2)O1          inactive
5  Cn1c(N)c(C(=O)COC(=O)C23CC4CC(CC(C4)C2)C3)c(=O)n(C)c1=O          inactive
6      C/C(=N\NC(=O)c1nc(C)cc(C)n1)c1ccccc1          inactive
7  O=S(=O)(NCCS(=O)(=O)N1CCN(c2ccccc2)CC1)c1ccc(F)cc1          inactive
8  O=C(COC(=O)Cc1ccc([N+](=O)[O-])cc1)NC1CCCCCC1          inactive
9  O=C(CNC(=O)OCc1ccccc1)NC1CCCCNC1=O (stereo not given)          inactive

###

EXPERIMENTAL DETAILS: qHTS for Inhibitors of human tyrosyl-DNA phosphodiesterase 1 (TDP1): qHTS in cells in presence of CPT; note: nearly all actives have a fitted effect of over 55% in size
MEASUREMENT PARAMETERS: chicken DT40 Tdp1-/-;hTDP1 cells + 20 nM CPT, ATP luminescence, 48 h; series mostly up to 46.2 µM
Hit rate of the full screen: of about 420,000 compounds, about 50,000 (12%) were called active. Roughly 26% stayed inconclusive and do not appear here. Calls follow the shape of the dose curve; as a rule, active = well fitted inhibition curve with a large enough effect; inconclusive = small, poorly fitted or top-dose-only effect; inactive = flat fitted curve, though single readings scatter. What follows is part of a selection rich in actives, with near analogues and random picks from the rest.
Outcomes: 1 for active, 0 for inactive

>>> df
                                    compound  assigned_class
 0  Cn1c(=N)n(CC(O)c2ccccc2)c2ccccc21 (stereo unspecified)               0
 1                   CCN1N=C(c2ccccc2)CCC1=O               0
 2  O=c1c2ccccc2nc2n1C(CSCc1ccccc1)CS2 (stereo unspecified)               1
 3  CCCCn1c(N)c(N(CCOC)C(=O)CSCC(=O)Nc2cccc(C)c2)c(=O)[nH]c1=O               0
 4  Cc1cccc(C)c1NC(=O)CSc1nc2c([nH]1)c(=O)n(C)c(=O)n2C               0
 5  Cc1ccc(N2C(=O)C3C4C=CC(CC4)C3C2=O)cc1Cl (stereo unspecified)               0
 6  CC(C)c1ccc(S(=O)(=O)N2CCC3(CC2)OCCO3)cc1               0
 7  CC(Oc1ccc(Br)cc1)C(=O)NCC(c1ccco1)N1CCCCC1 (stereo unspecified)               0
 8  CCOc1ccc(C(O)Cn2c(=N)n(CCN3CCCCC3)c3ccccc32)cc1 (stereo unspecified)               1
 9  O=C(CCNS(=O)(=O)c1ccccc1)NCCSc1ccc(Br)cc1               0
10  COc1cc(COCC(O)CN2CCN(Cc3ccc4c(c3)OCO4)CC2)cc(OC)c1OC (stereo unspecified)               0
